Source: ChEMBL document CHEMBL1136029

Field: pKa. Provide a value for each of the compounds that follow.
experiment.summary: Dissociation constant determined by calculating its overall stability
Type: physicochemical
Write the number on its own, no unit after it.

## Input State its pKa: "CCOC(=O)c1ccc(OS(N)(=O)=O)cc1"
## Output 8.22

## Input State its pKa: "CCCCCOC(=O)c1ccc(OS(N)(=O)=O)cc1"
## Output 8.47

## Input State its pKa: "CCCCCCOC(=O)c1ccc(OS(N)(=O)=O)cc1"
## Output 8.52

## Input State its pKa: "CCCOC(=O)c1ccc(OS(N)(=O)=O)cc1"
## Output 8.03

## Input State its pKa: "CCCCCCCOC(=O)c1ccc(OS(N)(=O)=O)cc1"
## Output 8.27

## Input State its pKa: "COC(=O)c1ccc(OS(N)(=O)=O)cc1"
## Output 8.28

## Input State its pKa: "CCCCOC(=O)c1ccc(OS(N)(=O)=O)cc1"
## Output 8.07
